- EXPERIMENT_SUMMARY: Plasma PK, Part A single oral doses in healthy participants
- Format: in vivo, human
- TEST_CONTEXT: human, plasma, oral, 50 mg, single dose 50 mg (1 × 50 mg), fed; read-out: AUC0–∞, geometric mean (CV%)
MEASUREMENT_LABEL: AUC(0-inf) (ng·h/mL)

[
  {
    "LINE_NOTATION": "OC[C@H]1O[C@H](Sc2cncc(Br)c2)[C@H](O)[C@@H](n2cc(-c3cc(F)c(F)c(F)c3)nn2)[C@H]1O",
    "QUANTITATIVE_RESULT": 5420
  }
]

====

- EXPERIMENT_SUMMARY: Plasma PK, Part A single oral doses in healthy participants
- Format: in vivo, human
- TEST_CONTEXT: human, plasma, oral, 50 mg, single dose 50 mg (10 × 5 mg), fasted; read-out: AUC0–tlast, geometric mean (CV%)

[
  {
    "MOLECULE": "OC[C@H]1O[C@H](Sc2cncc(Br)c2)[C@H](O)[C@@H](n2cc(-c3cc(F)c(F)c(F)c3)nn2)[C@H]1O [GB1211]",
    "AUC(0-t)": "6890 ng·h/mL"
  }
]
